// data source = patent US20220356230A1

Measurement target: MERS-CoV (NCoV/Novel coronavirus) Spike Protein S1 Protein (aa 1-725, His Tag) (Sino 40069-V08B1) (MERS-CoV), K9N5Q8
Test: Luminex bead assay, antigen on microspheres, antibody supernatant
Cond: remark: other sources report otherwise
Measured attribute: Binding signal (MFI)

Value of Binding signal (MFI) reported for the binder mAb11008 (antibody, V domains shown) VH: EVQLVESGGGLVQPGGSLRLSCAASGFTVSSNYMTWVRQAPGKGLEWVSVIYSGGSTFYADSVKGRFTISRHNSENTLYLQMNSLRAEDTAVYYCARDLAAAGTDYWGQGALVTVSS VL: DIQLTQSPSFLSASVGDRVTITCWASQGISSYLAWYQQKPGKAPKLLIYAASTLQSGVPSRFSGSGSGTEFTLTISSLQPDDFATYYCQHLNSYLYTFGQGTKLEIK is 18 MFI

Note to self: Binding signal (MFI) recorded for mAb11006 (antibody, V domains shown) VH: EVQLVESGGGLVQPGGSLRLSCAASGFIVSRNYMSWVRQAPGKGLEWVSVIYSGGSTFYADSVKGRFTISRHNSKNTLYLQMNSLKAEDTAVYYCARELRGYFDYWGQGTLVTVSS VL: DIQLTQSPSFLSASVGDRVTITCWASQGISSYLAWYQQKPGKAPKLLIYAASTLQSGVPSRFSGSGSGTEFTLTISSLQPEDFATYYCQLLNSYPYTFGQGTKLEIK was 18 MFI

Note to self: Binding signal (MFI) recorded for mAb10998 (antibody, V domains shown) VH: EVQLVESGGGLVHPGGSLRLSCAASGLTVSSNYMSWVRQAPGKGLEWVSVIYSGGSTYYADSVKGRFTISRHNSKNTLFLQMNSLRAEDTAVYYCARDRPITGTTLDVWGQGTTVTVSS VL: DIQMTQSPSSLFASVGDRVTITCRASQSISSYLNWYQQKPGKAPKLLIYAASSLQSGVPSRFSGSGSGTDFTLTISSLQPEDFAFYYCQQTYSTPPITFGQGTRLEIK was 19 MFI

The value of Binding signal (MFI) measured for the binder mAb11004 (antibody, V domains shown) VH: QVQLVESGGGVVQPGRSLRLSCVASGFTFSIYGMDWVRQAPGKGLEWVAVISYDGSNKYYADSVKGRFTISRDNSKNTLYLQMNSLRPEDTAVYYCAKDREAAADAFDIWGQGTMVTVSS VL: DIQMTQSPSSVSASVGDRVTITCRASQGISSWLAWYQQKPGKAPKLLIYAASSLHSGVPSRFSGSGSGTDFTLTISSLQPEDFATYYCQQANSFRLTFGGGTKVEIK turned out to be 17 MFI
